Assay: absolute recovery over mixed-bed multilayer solid-phase extraction; higher = better recovery
Conditions: wastewater influent; enrichment method: SPE
metric-name: absolute recovery (%)

compound	absolute recovery / %
CC1CC2C(C(O)CC3(C)C2CCC3(O)C(=O)CO)C2(C)C=CC(=O)C=C12 (stereo not drawn)	88.4
CC(C)[NH2+]CC(O)COc1ccc(COCCOC(C)C)cc1 (stereo not drawn)	89.8
CC(C)Nc1nc(N)nc(Cl)n1	91.6

----------
Assay: absolute recovery over mixed-bed multilayer solid-phase extraction; higher = better recovery
Conditions: wastewater influent; enrichment method: SPE
metric-name: absolute recovery (%)

Check out these entries, answers already filled in.
compound	absolute recovery / %
c1ccc(CN2CC[NH2+]CC2)cc1	72.5
Nc1nc(=O)n(C2CSC(CO)O2)cc1F (stereo unspecified)	85.2
CN(C)C(=O)Nc1ccc(-n2nc(C(C)(C)C)oc2=O)c(Cl)c1	92

P: C#CC[N+](C)([O-])C(C)Cc1ccccc1 (stereo unspecified) [Deprenyl-N-Oxide]
Q: CCC1OC(=O)C(C)C(OC2CC(C)(OC)C(O)C(C)O2)C(C)C(OC2OC(C)CC([NH2+]C)C2O)C(C)(O)CC(C)C[NH+](C)C(C)C(O)C1(C)O (stereo unspecified)
**Q:** In terms of reported absolute recovery, does P or Q have the smaller number? Answer = label.
**A:** P

----------
Assay: absolute recovery over mixed-bed multilayer solid-phase extraction; higher = better recovery
Details: wastewater influent; enrichment method: SPE
metric-name: absolute recovery (%)

molecule	unit-abbrev	test-result
O=C([O-])COc1ccc(Cl)cc1Cl [2-4-D]	%	91.2
CC(C)c1nc(CN(C)C(=O)NC(C(=O)NC(Cc2ccccc2)CC(O)C(Cc2ccccc2)NC(=O)OCc2cncs2)C(C)C)cs1 (stereo not drawn) [Ritonavir]	%	87.6
COc1ccc(CN(CC[NH+](C)C)c2ccccn2)cc1 [Pyrilamine]	%	88.2

----------
Experiment: LC retention time (Atlantis T3, 5-95% MeOH gradient, 0.1% formic acid); higher = more retained / less polar
metric-name: LC retention time (min)

compound	LC retention time (min)
COCC(C)N(C(=O)CCl)c1c(C)csc1C (stereo not drawn) [Dimethenamid]	19.6
CC([NH3+])C12CC3CC(CC(C3)C1)C2 (stereo not drawn) [Rimantadin]	14.6
O=C([O-])c1cn(C2CC2)c2cc(N3CC[NH2+]CC3)c(F)cc2c1=O [Ciprofloxacin]	11.7
NS(=O)(=O)c1cc2c(cc1Cl)NCNS2(=O)=O [Hydrochlorothiazid]	10.2
Nc1ccc(C=Cc2ccc(N)cc2S(=O)(=O)[O-])c(S(=O)(=O)[O-])c1 [4-4-diamino-2,2-stilbenedisulfonic-acid]	4.15

1: CC(C)Nc1nc(N)nc(O)n1 [Atrazin-desethyl-2-hydroxy]
2: CC1CC2C(C(O)CC3(C)C2CCC3(O)C(=O)CO)C2(C)C=CC(=O)C=C12 (stereo not drawn) [Methylprednisolon]
**Q:** Which numeric LC retention time is bigger, that of 1 or that of 2 ? Answer = label.
**A:** 2

----------
Test: absolute recovery over mixed-bed multilayer solid-phase extraction; higher = better recovery
Conditions: surface water; enrichment method: SPE
metric-name: absolute recovery (%)

molecule	metric-name	test-result
Cc1cc(O)nc(C(C)C)n1	absolute recovery	81.4
CCc1cccc2c3c([nH]c12)C(CC)(CC(=O)[O-])OCC3 (stereo unspecified)	absolute recovery	80.5
Nc1nc(=O)c2ncn(CCC(CO)CO)c2[nH]1	absolute recovery	78.3
CCCCOc1cc(C(=O)NCC[NH+](CC)CC)c2ccccc2n1	absolute recovery	81.6
CCCCNC(=O)OCC#CI	absolute recovery	79.9
CC12CCC(=O)C=C1CCC1C2C(O)CC2(C)C1CCC2(O)C(=O)CO (stereo unspecified) [Hydrocortison]	absolute recovery	80.2

----------
Assay: absolute recovery over vacuum-assisted evaporative concentration; higher = better recovery
Conditions: wastewater effluent; enrichment method: VEC
metric-name: absolute recovery (%)

molecule	test-result
CN1CC[NH+]=C(c2ccccc2)c2cc(Cl)ccc21	103
CC(C)(C)Nc1nc(N)nc(O)n1 [Terbutylazin-desethyl-2-hydroxy]	113
C#CC(C)(C)NC(=O)c1cc(Cl)cc(Cl)c1 [Propyzamide]	82
C=CC1=C(C(=O)[O-])N2C(=O)C([NH3+])C2SC1 (centres undefined)	95.6

----------
Test: absolute recovery over mixed-bed multilayer solid-phase extraction; higher = better recovery
Settings: wastewater influent; enrichment method: SPE
metric-name: absolute recovery (%)

compound	absolute recovery [%]
C[NH2+]CC(O)c1cccc(O)c1 (stereo unspecified)	86.1
CC(C)N(C(=O)CS(=O)(=O)[O-])c1ccc(F)cc1	96.4
CC(=O)N(C)N(C(=O)C(=O)N(C)C)c1ccccc1	90.8
CC([NH3+])C(O)c1ccccc1 (stereo unspecified)	77.6
CC(C)N1C(=O)c2ccccc2[N-]S1(=O)=O	93.1
CC1=NNC(=O)N(N=Cc2cccnc2)C1	97

----------
Assay: absolute recovery over mixed-bed multilayer solid-phase extraction; higher = better recovery
Settings: surface water; enrichment method: SPE
metric-name: absolute recovery (%)

Check out these entries, answers already filled in.
compound	absolute recovery (%)
CSc1nc(N)nc(NC(C)(C)C)n1	100
CC(C)CC(C[NH3+])CC(=O)[O-] (racemic)	2
CC(=O)Nc1c(I)c(C(=O)[O-])c(I)c(C(=O)NCCO)c1I	65.7
O=C(OC1CC2CCC(C1)[N+]21CCCC1)C(O)(c1ccccc1)c1ccccc1 (centres undefined)	91.7
CCCC[NH+]1CCCCC1C(=O)Nc1c(C)cccc1C (centres undefined)	93.1

1: C[NH+]1CCCC1c1cccnc1 (centres undefined)
2: O=C(Nc1ccc(Cl)cc1)Nc1ccc(Cl)c(Cl)c1
3: Oc1ccc(C=Cc2cc(O)cc(O)c2)cc1
**Q:** Arrange the 3 entries by absolute recovery so the values rise. # answer = labels listed in requested order
**A:** 1, 3, 2
(1: 27.7%, 3: 66.6%, 2: 118%)

----------
Experiment: LC retention time (Atlantis T3, 5-95% MeOH gradient, 0.1% formic acid); higher = more retained / less polar
metric-name: LC retention time (min)

compound	metric-name	test-result
CCCCCCCCCC[N+](C)(C)[O-]	LC retention time	16.9
CC(C)N(C(=O)CS(=O)(=O)[O-])c1ccccc1	LC retention time	19.4
O=C(Cc1ccccc1)NC(=NOCC1CC1)c1c(C(F)(F)F)ccc(F)c1F	LC retention time	20.9
CC(C)CC(C[NH3+])CC(=O)[O-] (racemic)	LC retention time	10.3
COC(=O)c1cc(C(=O)OC)cc(S(=O)(=O)[O-])c1 [Dimethyl-5-Sulfoisophthalate]	LC retention time	16.1
C#CCOc1ccc(CCNC(=O)C(OCC#C)c2ccc(Cl)cc2)cc1OC (centres undefined)	LC retention time	19.2
C[NH2+]CCC(Oc1ccccc1C)c1ccccc1 (centres undefined)	LC retention time	15.5
CCC(C(N)=O)N1CCCC1=O (centres undefined)	LC retention time	10.9
Cc1cc(Cl)ccc1OC(C)C(=O)[O-] (centres undefined)	LC retention time	20

----------
Assay: absolute recovery over vacuum-assisted evaporative concentration; higher = better recovery
Details: wastewater effluent; enrichment method: VEC
metric-name: absolute recovery (%)

compound	unit-abbrev	absolute recovery
CCOC(=O)NCCOc1ccc(Oc2ccccc2)cc1	%	127
O=C1Nc2ccc(Cl)cc2C(c2ccccc2)=NC1O (centres undefined)	%	104
COCCN(C(=O)CS(=O)(=O)[O-])c1c(C)cccc1C	%	104
CCC(=O)OC(Cc1ccccc1)(c1ccccc1)C(C)C[NH+](C)C (centres undefined)	%	108

----------
Assay: absolute recovery over mixed-bed multilayer solid-phase extraction; higher = better recovery
Conditions: wastewater effluent; enrichment method: SPE
metric-name: absolute recovery (%)

molecule	unit-abbrev	absolute recovery
Cc1c(NC=O)c(=O)n(-c2ccccc2)n1C [4-Formylaminoantipyrin (=4-FAA)]	%	90.2
CCCCCCCCn1sccc1=O [2-n-Octyl-4-isothiazolin-3-on (=OIT)]	%	91.8
COCC(C)N(C(=O)CCl)c1c(C)csc1C (centres undefined) [Dimethenamid]	%	91.7
CC12C=CC(=O)C=C1CCC1C2C(O)CC2(C)C1CCC2(O)C(=O)CO (centres undefined) [Prednisolon]	%	82.1

----------
Assay: absolute recovery over vacuum-assisted evaporative concentration; higher = better recovery
Details: wastewater effluent; enrichment method: VEC
metric-name: absolute recovery (%)

Check out these entries, answers already filled in.
compound	unit-abbrev	absolute recovery
CNC(=C[N+](=O)[O-])NCCSCc1ccc(C[N+](C)(C)[O-])o1	%	103
O=C1CC(C(=O)[O-])CC(=O)C1=C([O-])C1CC1 (centres undefined) [Trinexapac (free acid)]	%	108
Cc1cc(C(C)(C)C)cc(C)c1CC1=[NH+]CCN1	%	102

A: CC(=O)OC1C(C)OC(n2cc(F)c(N)nc2=O)C1OC(C)=O (centres undefined)
B: CC=CC(=O)N(CC)c1ccccc1C
**Q:** In terms of reported absolute recovery, does A or B have the smaller number? Answer = label.
**A:** B
(B: 59.5%, A: 101%)

1: COCCc1ccc(OCC(O)C[NH2+]C(C)C)cc1 (centres undefined)
2: C#CC[NH+](C)Cc1ccccc1
**Q:** Which numeric absolute recovery is bigger, that of 1 or that of 2 ? Answer = label.
**A:** 1
(1: 107%, 2: 73.6%)
